- TEST_SUMMARY: NCI Yeast Anticancer Drug Screen. Data for the bub3 strain (AID 167)
- CONDITION_PARAMETERS: S. cerevisiae bub3 mutant strain, at 50.0 µM
Compounds without any hit were thinned out: in the full panel of roughly 79,000, 15% have a hit. Active and inactive are the calls of the source. Rule as the data show it: active = growth inhibition above about 70%; inactive = the rest.
Outcomes: active, inactive

{"MOLECULE": "N#CSCc1ccc(Cl)c(CSC#N)c1", "QUALITATIVE_LABEL": "active"}
{"MOLECULE": "COc1ccc2c(c1)C(=O)C(Br)CC2 (stereo unspecified)", "QUALITATIVE_LABEL": "inactive"}
{"MOLECULE": "NS(=O)(=O)c1ccc(NC(=S)/N=C\\C(C(=O)c2ccccc2)=C(\\O)c2ccccc2)cc1", "QUALITATIVE_LABEL": "inactive"}
{"MOLECULE": "COc1cc(/C=C(\\C#N)c2ccc([N+](=O)[O-])cc2)ccc1O", "QUALITATIVE_LABEL": "active"}
{"MOLECULE": "CCCCCCCCCCCC(=O)OCC1OC(n2cc(F)c(=O)[nH]c2=O)C(N)C(O)C1O (stereo unspecified)", "QUALITATIVE_LABEL": "active"}
{"MOLECULE": "Cc1c2ccccc2c(C)c2c1ccc1ccccc12", "QUALITATIVE_LABEL": "active"}
{"MOLECULE": "CC(/C=C/c1cccs1)=N\\C(=S)NC(N)=S", "QUALITATIVE_LABEL": "active"}
{"MOLECULE": "CCCCCCCCCCCC1C(C#N)C(=O)NC(=O)C1C#N (stereo unspecified)", "QUALITATIVE_LABEL": "inactive"}
{"MOLECULE": "CC(C)(C)C(=O)/C=C/c1ccc2ccccc2n1", "QUALITATIVE_LABEL": "inactive"}
{"MOLECULE": "C=Cc1ccc(B2NCCO2)cc1", "QUALITATIVE_LABEL": "active"}
{"MOLECULE": "CCCCCCCCCCCCCCNCc1ccccc1", "QUALITATIVE_LABEL": "active"}
{"MOLECULE": "CC1(C)CC([P+](c2ccccc2)(c2ccccc2)c2ccccc2)=NN1", "QUALITATIVE_LABEL": "active"}
{"MOLECULE": "Cc1ccc(S(=O)(=O)N(c2ccccc2-c2ccccc2)C(C)C(=O)O)cc1 (stereo unspecified)", "QUALITATIVE_LABEL": "active"}
{"MOLECULE": "O=C(CC1(O)C(=O)Nc2c(Cl)cc(Cl)cc21)c1ccc(Br)cc1 (stereo unspecified)", "QUALITATIVE_LABEL": "active"}
{"MOLECULE": "CN(C)c1nc(=Nc2ccc(N=c3nc(N(C)C)ss3)cc2)ss1", "QUALITATIVE_LABEL": "active"}
{"MOLECULE": "O=C(Nc1ccc(S(=O)(=O)NC2CCCCC2)cc1)OCc1ccccc1", "QUALITATIVE_LABEL": "inactive"}
{"MOLECULE": "CCC(=O)OCC(=O)c1ccc(-c2ccccc2)cc1", "QUALITATIVE_LABEL": "inactive"}
{"MOLECULE": "OC1(CCc2ccccc2)COC(C(F)(F)F)(C(F)(F)F)C1 (stereo unspecified)", "QUALITATIVE_LABEL": "inactive"}
{"MOLECULE": "CCOC(=O)CCc1ccc(OC)c(OC)c1", "QUALITATIVE_LABEL": "inactive"}
{"MOLECULE": "COC(=O)c1ccccc1C#Cc1ccccc1C(=O)OC", "QUALITATIVE_LABEL": "active"}
{"MOLECULE": "COc1ccc(C2Oc3c(cccc3OC)C=C2[N+](=O)[O-])cc1 (stereo unspecified)", "QUALITATIVE_LABEL": "inactive"}
{"MOLECULE": "O=C1c2ccccc2C(O)(C#Cc2ccccc2)c2cnccc21 (stereo unspecified)", "QUALITATIVE_LABEL": "active"}
{"MOLECULE": "Nc1ccc(Cc2ccc(Cl)cc2)cc1", "QUALITATIVE_LABEL": "active"}
{"MOLECULE": "O=c1[nH]ccc(CNC23CC4CC(CC(C4)C2)C3)c1O", "QUALITATIVE_LABEL": "inactive"}
{"MOLECULE": "O=C(CCN1CCCC1)c1ccc(Oc2ccc(F)cc2)cc1", "QUALITATIVE_LABEL": "inactive"}
{"MOLECULE": "O=C1C2(Cl)C(Cl)=C(Cl)C1(Cl)C1(Cl)C(Cl)=C(Cl)C(=O)C21Cl (stereo unspecified)", "QUALITATIVE_LABEL": "inactive"}
{"MOLECULE": "CCC(CCCN(CC)CCc1ccccc1)OC(=O)c1cc(OC)c(OC)c(OC)c1 (stereo unspecified)", "QUALITATIVE_LABEL": "inactive"}
{"MOLECULE": "COc1nc(Nc2ccc(/C=C/c3ccc(Nc4nc(OC)nc(N(CCO)CCO)n4)cc3S(=O)(=O)O)c(S(=O)(=O)O)c2)nc(N(CCO)CCO)n1", "QUALITATIVE_LABEL": "inactive"}
{"MOLECULE": "NC(CCCNc1nc(O)cc(=O)[nH]1)C(=O)O (stereo unspecified)", "QUALITATIVE_LABEL": "inactive"}
{"MOLECULE": "CCC1OC(OC)C=CC1=O (stereo unspecified)", "QUALITATIVE_LABEL": "active"}
{"MOLECULE": "Cc1cc(N)c2ccccc2[n+]1CCCCCCCCCC[n+]1c(C)cc(N)c2ccccc21", "QUALITATIVE_LABEL": "active"}
{"MOLECULE": "c1cc[c]([Sn]([NH]c2ncnc3[nH]cnc23)([NH]c2ncnc3[nH]cnc23)[c]2ccccc2)cc1", "QUALITATIVE_LABEL": "inactive"}
{"MOLECULE": "NC1CCCCC1N.O=S(=O)([O-])CCCN1CCN(CCO)CC1.O=S(=O)([O-])CCCN1CCN(CCO)CC1.[Pt+4]", "QUALITATIVE_LABEL": "inactive"}
{"MOLECULE": "CC(C)(Sc1cc(Cl)c(Cl)c(Cl)c1)C(=O)OCCN1CCOCC1", "QUALITATIVE_LABEL": "active"}
{"MOLECULE": "Cc1cc(N2C(=O)CSC2=S)ccc1Cl", "QUALITATIVE_LABEL": "inactive"}
{"MOLECULE": "Nc1ccc(SSc2ccc(N)cc2)cc1", "QUALITATIVE_LABEL": "active"}
{"MOLECULE": "CC(=O)N1c2ccccc2C2=NN=C(N(C)C)SC21 (stereo unspecified)", "QUALITATIVE_LABEL": "active"}
{"MOLECULE": "O=[N+]([O-])c1ccc(N=Nc2ccc(O)cc2O)cc1", "QUALITATIVE_LABEL": "active"}
{"MOLECULE": "O=S(=O)(Cl)c1ccc(Br)cc1", "QUALITATIVE_LABEL": "inactive"}
{"MOLECULE": "CC(SCc1ccccc1)C(=O)O (stereo unspecified)", "QUALITATIVE_LABEL": "inactive"}
{"MOLECULE": "FC(F)(F)C(C1=NC(C(F)(F)F)(C(F)(F)F)N=C(N2CCOCC2)O1)C(F)(F)F", "QUALITATIVE_LABEL": "inactive"}
{"MOLECULE": "CCCCCCCNc1ccc2c(cc1=O)C(NC(C)=O)CCc1cc(OC)c(OC)c(OC)c1-2 (stereo unspecified)", "QUALITATIVE_LABEL": "inactive"}
{"MOLECULE": "O=C(c1ccco1)N(C(=S)N1CCN(c2ccccn2)CC1)c1ccccc1", "QUALITATIVE_LABEL": "inactive"}
{"MOLECULE": "COc1cc(/C=C(/C)C[N+](=O)[O-])ccc1O", "QUALITATIVE_LABEL": "active"}
{"MOLECULE": "O=C(c1cccc(Cl)c1)c1ccc2ccccc2c1C(=O)O", "QUALITATIVE_LABEL": "inactive"}
{"MOLECULE": "O=C1NC2(C=Cc3c(ccc4ccccc34)O2)Oc2ccccc21 (stereo unspecified)", "QUALITATIVE_LABEL": "inactive"}
